# key: entry, value: Kd
tgt: UniProt:P40337
test: Surface Plasmon Resonance Assay
Format: binding
cond: SPR measured VHL affinity; geometric mean where more than one measurement
The reply should be a number in µM, with the unit left off.

Note to self: Kd of Cc1cc(C(C(=O)N2C[C@H](O)C[C@H]2C2=NN(CC(F)(F)F)C(C)(C)N2)C(C)C)on1 (single isomer, unassigned) [Example 134.2] with UniProt:P40337 was 57.4

Note to self: Kd of Cc1cc([C@@H](C(=O)N2C[C@H](O)C[C@H]2C2=NOC(C)(c3ccc(-c4scnc4C)cc3)N2)C(C)C)on1 (single isomer, unassigned) [Example 129.2] with UniProt:P40337 was 57

Note to self: Kd of Cc1cc([C@H](C(=O)N2C[C@H](O)C[C@H]2C2=NO[C@](c3ccccc3)(C(F)(F)F)N2)C(C)C)on1 (mixture of isomers) [Example 114.4] with UniProt:P40337 was 5.86

Note to self: Kd of Cc1cc([C@H](C(=O)N2C[C@H](O)C[C@H]2C2=NOC(c3ccc(Br)cc3)(C(F)(F)F)N2)C(C)C)on1 (single isomer, unassigned) [Example 133.3] with UniProt:P40337 was 36.3

###

# key: entry, value: Kd
tgt: VHL co-expressed with Elongins B and C (Homo sapiens (Human), UniProt P40337)
Sequence (P40337 whole entry, looked up): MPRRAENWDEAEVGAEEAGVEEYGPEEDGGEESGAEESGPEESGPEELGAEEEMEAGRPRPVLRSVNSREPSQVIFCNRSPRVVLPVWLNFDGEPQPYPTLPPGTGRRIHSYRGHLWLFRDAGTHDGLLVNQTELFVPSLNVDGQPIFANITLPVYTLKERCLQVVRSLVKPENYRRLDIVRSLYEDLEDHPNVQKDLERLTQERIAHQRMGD
Sequence (Q15370 whole entry partner, looked up): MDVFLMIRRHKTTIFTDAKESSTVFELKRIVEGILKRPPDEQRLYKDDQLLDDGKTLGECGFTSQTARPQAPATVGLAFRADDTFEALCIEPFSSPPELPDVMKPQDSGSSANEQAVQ
Sequence (Q15369 whole entry partner, looked up): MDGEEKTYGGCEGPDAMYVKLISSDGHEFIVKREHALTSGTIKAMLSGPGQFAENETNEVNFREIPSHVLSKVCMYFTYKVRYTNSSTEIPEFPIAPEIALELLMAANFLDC
test: Surface Plasmon Resonance Assay
Format: binding
cond: SPR measured VHL affinity; geometric mean where more than one measurement
The reply should be a number in µM, with the unit left off.

In the examples that follow, each entry is paired with its recorded Kd.
{"columns": ["compound", "tgt", "Kd [µM]"],
 "data": [
  ["CC(=O)N[C@H](C(=O)N1C[C@H](O)CC1C1=NC(=O)C(C)(c2ccc(-c3scnc3C)cc2)N1)C(C)(C)C (single isomer, unassigned) [Example 102.2]", "VHL co-expressed with Elongins B and C (Homo sapiens (Human), UniProt P40337)", 43.8],
  ["CCN1N=C([C@@H]2C[C@@H](O)CN2C(=O)C(c2cc(C)no2)C(C)C)NC1(C)C (single isomer, unassigned) [Example 115.2]", "VHL co-expressed with Elongins B and C (Homo sapiens (Human), UniProt P40337)", 4.03],
  ["Cc1cc([C@H](C(=O)N2C[C@H](O)C[C@H]2C2=NOC(C)(c3ccc(-c4scnc4C)cc3)N2)C(C)C)on1 (single isomer, unassigned) [Example 129.3]", "VHL co-expressed with Elongins B and C (Homo sapiens (Human), UniProt P40337)", 0.0293]
]}

Proceeding to the next compound to report its Kd.
Note to self: Kd of Cc1cc([C@H](C(=O)N2C[C@H](O)C[C@H]2C2=NO[C@@](c3ccccc3)(C(F)(F)F)N2)C(C)C)on1 (mixture of isomers) [Example 114.1] with VHL co-expressed with Elongins B and C (Homo sapiens (Human), UniProt P40337) was 150

###

# key: entry, value: IC50
tgt: NanoLuc VHL fusion protein (Homo sapiens (Human), UniProt P40337)
Sequence (P40337 whole entry, looked up, the tested form may be a part): as the sequence (P40337 whole entry, looked up) above
Sequence (Q15370 whole entry partner, looked up, the tested form may be a part): as the sequence (Q15370 whole entry partner, looked up) above
Sequence (Q15369 whole entry partner, looked up, the tested form may be a part): as the sequence (Q15369 whole entry partner, looked up) above
test: VHL HEK-293 BRET Assay (NanoBRET Target Engagement)
Type: cell-based
cond: geometric mean where more than one measurement
The reply should be a number in µM, with the unit left off.

In the examples that follow, each entry is paired with its recorded IC50.
{"columns": ["compound", "tgt", "units-of-measure", "IC50"],
 "data": [
  ["Cc1ncsc1-c1ccc([C@]2(C)NC(C3C[C@@H](O)CN3C(=O)C(c3cn(C)nn3)C(C)C)=NC2=O)cc1 (single isomer, unassigned) [Example 118.4]", "NanoLuc VHL fusion protein (Homo sapiens (Human), UniProt P40337)", "µM", 100],
  ["Cc1ncsc1-c1ccc([C@]2(C)NC(C3C[C@@H](O)CN3C(=O)[C@@H](NC(=O)C3(C#N)CC3)C(C)(C)C)=NC2=O)cc1 (single isomer, unassigned) [Example 111.2]", "NanoLuc VHL fusion protein (Homo sapiens (Human), UniProt P40337)", "µM", 5.11],
  ["Cc1cc([C@H](C(=O)N2C[C@H](O)C[C@H]2C2=NO[C@](c3ccccc3)(C(F)(F)F)N2)C(C)C)on1 (mixture of isomers) [Example 114.2]", "NanoLuc VHL fusion protein (Homo sapiens (Human), UniProt P40337)", "µM", 100],
  ["Cc1cc(C(C(=O)N2C[C@H](O)CC2C2=NC(=O)[C@](C)(c3ccc(-c4scnc4C)cc3)N2)C(C)C)sn1 (single isomer, unassigned) [Example 119.1]", "NanoLuc VHL fusion protein (Homo sapiens (Human), UniProt P40337)", "µM", 100],
  ["Cc1cc([C@H](C(=O)N2C[C@H](O)C[C@H]2C2=NOC3(CCCC3)N2)C(C)C)on1 [Example 127.2]", "NanoLuc VHL fusion protein (Homo sapiens (Human), UniProt P40337)", "µM", 73.2],
  ["Cc1cc([C@@H](C(=O)N2C[C@H](O)C[C@H]2C2=NOC(c3ccccc3)(c3ccccc3)N2)C(C)C)on1 [Example 132.1]", "NanoLuc VHL fusion protein (Homo sapiens (Human), UniProt P40337)", "µM", 100],
  ["Cc1cc(C(C(=O)N2C[C@H](O)C[C@H]2C2=NO[C@](C)(c3ccc(-c4ccccc4F)cc3)N2)C(C)C)on1 (single isomer, unassigned) [Example 139.2]", "NanoLuc VHL fusion protein (Homo sapiens (Human), UniProt P40337)", "µM", 0.0678],
  ["CC(=O)N1CCCCC1C(=O)N1C[C@H](O)CC1C1=NC(=O)[C@](C)(c2ccc(-c3scnc3C)cc2)N1 (single isomer, unassigned) [Example 124.1]", "NanoLuc VHL fusion protein (Homo sapiens (Human), UniProt P40337)", "µM", 100]
]}

The compound listed as Cc1cc([C@H](C(=O)N2C[C@H](O)C[C@H]2C2=NO[C@@](c3ccccc3)(C(F)(F)F)N2)C(C)C)on1 (mixture of isomers) [Example 114.1] has a reported IC50 of 100

###

# key: entry, value: Kd
tgt: VHL co-expressed with Elongins B and C (Homo sapiens (Human))
test: Surface Plasmon Resonance Assay
Type: binding
cond: SPR measured VHL affinity; geometric mean where more than one measurement
The reply should be a number in µM, with the unit left off.

In the examples that follow, each entry is paired with its recorded Kd.
{"columns": ["compound", "units-of-measure", "Kd"],
 "data": [
  ["Cc1noc(C(C(=O)N2C[C@H](O)CC2C2=NC(=O)[C@](C)(c3ccc(-c4scnc4C)cc3)N2)C(C)C)n1 (single isomer, unassigned) [Example 117.1]", "µM", 155],
  ["Cc1cc([C@H](C(=O)N2C[C@H](O)C[C@H]2C2=NOC3(CCCC3)N2)C(C)C)on1", "µM", 16.4]
]}

Proceeding to the next compound to report its Kd.
The compound listed as Cc1ncsc1-c1ccc([C@]2(C)NC(C3C[C@@H](O)CN3C(=O)[C@@H]3CCCN3S(C)(=O)=O)=NC2=O)cc1 (single isomer, unassigned) [Example 112.2] has a reported Kd of 150

###

tgt: VHL co-expressed with Elongins B and C (Homo sapiens (Human), UniProt P40337)
test: Surface Plasmon Resonance Assay
Assay type: binding
cond: SPR measured VHL affinity; geometric mean where more than one measurement
# key: entry, value: Kd
The reply should be a number in µM, with the unit left off.

{"columns": ["compound", "Kd [µM]"],
 "data": [
  ["Cc1noc(C(C(=O)N2C[C@H](O)CC2C2=NC(=O)[C@](C)(c3ccc(-c4scnc4C)cc3)N2)C(C)C)n1 (single isomer, unassigned) [Example 117.2]", 0.625]
]}

Proceeding to the next compound to report its Kd.
The compound listed as Cc1cc(C(C(=O)N2C[C@H](O)CC2C2=NC(=O)[C@](C)(c3ccc(-c4scnc4C)cc3)N2)C(C)C)sn1 (single isomer, unassigned) [Example 119.1] has a reported Kd of 150

###

# key: entry, value: log10 Kd
tgt: VHL co-expressed with Elongins B and C (Homo sapiens (Human), UniProt P40337)
test: Surface Plasmon Resonance Assay
Type: binding
cond: SPR measured VHL affinity; geometric mean where more than one measurement
Scale: decimal log of Kd, Kd in µM.

In the examples that follow, each entry is paired with its recorded log10 Kd.
{"columns": ["compound", "log10 Kd"],
 "data": [
  ["Cc1cc(C(C(=O)N2C[C@H](O)CC2C2=NC(=O)C(C)(c3ccc(-c4cccc(=O)n4C)cc3)N2)C(C)C)on1 (single isomer, unassigned) [Example 108.1]", 1.14],
  ["Cc1cc(C(C(=O)N2C[C@H](O)CC2C2=NC(=O)[C@](C)(c3ccc(-c4scnc4C)cc3)N2)C(C)C)sn1 (single isomer, unassigned) [Example 119.4]", 2.18],
  ["Cc1cc(C(C(=O)N2C[C@H](O)CC2C2=NC(=O)C(C)(c3ccc(-c4scnc4C)cc3)N2)C(C)C)on1 (single isomer, unassigned) [Example 104.1]", 1.56],
  ["Cc1ncsc1-c1ccc([C@]2(C)NC(C3C[C@@H](O)CN3C(=O)C(c3cc(O)no3)C(C)C)=NC2=O)cc1 (single isomer, unassigned) [Example 116.3]", 2.18],
  ["Cc1cc([C@H](C(=O)N2C[C@H](O)C[C@H]2C2=NOC(c3ccc(Br)cc3)(C(F)(F)F)N2)C(C)C)on1 (single isomer, unassigned) [Example 133.4]", 1.24]
]}

Note to self: log10 Kd of Cc1cc(C(C(=O)N2C[C@H](O)CC2C2=NC(=O)C(C)(c3ccc(-c4scnc4C)cc3)N2)C(C)C)on1 (single isomer, unassigned) [Example 104.3] with VHL co-expressed with Elongins B and C (Homo sapiens (Human), UniProt P40337) was 1.65

Note to self: log10 Kd of Cc1ncsc1-c1ccc([C@]2(C)NC(C3C[C@@H](O)CN3C(=O)[C@H](C(C)C)N3Cc4ccccc4C3=O)=NC2=O)cc1 (single isomer, unassigned) [Example 123.1] with VHL co-expressed with Elongins B and C (Homo sapiens (Human), UniProt P40337) was 1.75

Reference for the values: patent US11242344B2
